Entry source: patent US20230233569A1

biological target: KRAS WT (Homo sapiens, UniProt P01116+P62937); assay: Disruption of BRAF RBD interaction with Ras (FRET / MOA assay, with Cyclophilin A); assay type: biochemical; conditions: KRAS WT; read-out: KRAS WT FRET data IC50
Sequence (P01116 1-169 isoform P01116-2 limits assumed): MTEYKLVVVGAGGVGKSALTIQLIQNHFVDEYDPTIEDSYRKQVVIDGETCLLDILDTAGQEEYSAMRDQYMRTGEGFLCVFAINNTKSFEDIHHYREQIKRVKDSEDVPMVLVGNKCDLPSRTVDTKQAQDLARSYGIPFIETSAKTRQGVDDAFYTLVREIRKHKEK
Sequence (P62937 whole entry): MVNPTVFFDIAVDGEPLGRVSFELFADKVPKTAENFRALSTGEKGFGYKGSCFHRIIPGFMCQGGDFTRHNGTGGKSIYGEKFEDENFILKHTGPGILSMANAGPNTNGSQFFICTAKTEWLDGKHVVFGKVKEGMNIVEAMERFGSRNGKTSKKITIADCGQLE
pIC50: −log10 of the molar value.
Recorded Endpoint: pIC50

The value of pIC50 measured for the compound CCn1c(-c2cccnc2[C@H](C)OC)c2c3cc(ccc31)-c1csc(n1)C[C@H](NC(=O)[C@H](C(C)C)N(C)C(=O)N1CCC3(CCN(C)CC3)C1)C(=O)N1CCC[C@H](N1)C(=O)OCC(C)(C)C2 (atropisomer, axis not shown) turned out to be 7.00 to 8.00

Notebook: CCn1c(-c2cccnc2[C@H](C)OC)c2c3cc(ccc31)-c1csc(n1)C[C@H](NC(=O)[C@H](C(C)C)N(C)C(=O)N1CC(N3CCN(C)CC3)C1)C(=O)N1CCC[C@H](N1)C(=O)OCC(C)(C)C2 , pIC50 read as 6.00 to 7.00

* * *

target: KRAS G12C (Homo sapiens, UniProt P01116+P62937, G12C); test: Ras-Raf disruption / FRET / MOA assay (BRAF RBD); type: biochemical; conditions: KRAS G12C FRET data IC50, Ras-Raf disruption, with Cyclophilin A
Sequence (P01116 1-169 isoform P01116-2 G12C limits assumed): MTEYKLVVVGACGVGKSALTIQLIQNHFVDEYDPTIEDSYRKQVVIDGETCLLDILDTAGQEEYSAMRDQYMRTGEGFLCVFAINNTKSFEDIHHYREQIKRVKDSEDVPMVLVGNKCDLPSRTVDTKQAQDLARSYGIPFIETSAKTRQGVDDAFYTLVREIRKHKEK
Sequence (P62937 whole entry): as the sequence (P62937 whole entry) above
Recorded Endpoint: IC50

Previously resolved entries follow.
CCn1c(-c2cccnc2[C@H](C)OC)c2c3cc(ccc31)-c1cc(O)cc(c1)C[C@H](NC(=O)[C@H](C(C)C)N(C)C(=O)CN(C)C(=O)[C@H]1CN1)C(=O)N1CCC[C@H](N1)C(=O)OCC(C)(C)C2 (single isomer, unassigned) [Example 42A] ... < 10 nM
CCn1c(-c2cccnc2[C@H](C)OC)c2c3cc(ccc31)-c1cc(O)cc(c1)C[C@H](NC(=O)[C@H](C(C)C)N(C)C(=O)CN(C)C(=O)[C@@H]1N[C@@H]1C1COC1)C(=O)N1CCC[C@H](N1)C(=O)OCC(C)(C)C2 [Example 281] ... < 10 nM
CCn1c(-c2cccnc2[C@H](C)OC)c2c3cc(ccc31)-c1cc(O)cc(c1)C[C@H](NC(=O)[C@H](C(C)C)N(C)C(=O)CN(C)C(=O)[C@H]1CN1CCCC#N)C(=O)N1CCC[C@H](N1)C(=O)OCC(C)(C)C2 (stereo partly shown) [Example 273] ... < 10 nM
CCn1c(-c2cccnc2[C@H](C)OC)c2c3cc(ccc31)-c1cc(O)cc(c1)C[C@H](NC(=O)[C@H](C1CCCC1)N(C)C(=O)CN(C)C(=O)[C@@H]1N[C@@H]1C1CC1)C(=O)N1CCC[C@H](N1)C(=O)OCC(C)(C)C2 [Example 170] ... 10 to 100 nM
CCn1c(-c2cccnc2[C@H](C)OC)c2c3cc(ccc31)-c1cc(O)cc(c1)C[C@H](NC(=O)[C@H](C1CCCC1)N(C)C(=O)CN(C)C(=O)[C@H]1N[C@H]1C1(OC)CC1)C(=O)N1CCC[C@H](N1)C(=O)OCC(C)(C)C2 (single isomer, unassigned) [Example 322] ... 10 to 100 nM
CCn1c(-c2cccnc2[C@H](C)OC)c2c3cc(ccc31)-c1cc(O)cc(c1)C[C@H](NC(=O)[C@H](C(C)C)N(C)C(=O)[C@H]1CCN1C(=O)[C@@H]1CN1)C(=O)N1CCC[C@H](N1)C(=O)OCC(C)(C)C2 [Example 157] ... 10 to 100 nM

For this compound ( CCn1c(-c2cccnc2[C@H](C)OC)c2c3cc(ccc31)-c1cc(O)cc(c1)C[C@H](NC(=O)[C@H](C(C)C)N(C)C(=O)CN(C)C(=O)C1CN1CCOC)C(=O)N1CCC[C@H](N1)C(=O)OCC(C)(C)C2 (stereo partly shown) [Example 90] ), measured IC50 is < 10 nM

Field IC50 (entry CCn1c(-c2cccnc2[C@H](C)OC)c2c3cc(ccc31)-c1cc(O)cc(c1)C[C@H](NC(=O)[C@H](C(C)C)N(C)C(=O)CNC(=O)[C@H]1CN1)C(=O)N1CCC[C@H](N1)C(=O)OCC(C)(C)C2 [Example 140] ) reads < 10 nM

Just so you know, measured IC50 for CCn1c(-c2cccnc2[C@H](C)OC)c2c3cc(ccc31)-c1cc(O)cc(c1)C[C@H](NC(=O)[C@H](C(C)C)N(C)C(=O)CN(C)C(=O)[C@H]1CN1CCOC)C(=O)N1CCC[C@H](N1)C(=O)OCC(C)(C)C2 (stereo partly shown) [Example 159] came out at 10 to 100 nM
